Molecular target: T1, PUF4 RNA-binding domain (Saccharomyces cerevisiae, UniProt P25339 537-888)
T1 sequence: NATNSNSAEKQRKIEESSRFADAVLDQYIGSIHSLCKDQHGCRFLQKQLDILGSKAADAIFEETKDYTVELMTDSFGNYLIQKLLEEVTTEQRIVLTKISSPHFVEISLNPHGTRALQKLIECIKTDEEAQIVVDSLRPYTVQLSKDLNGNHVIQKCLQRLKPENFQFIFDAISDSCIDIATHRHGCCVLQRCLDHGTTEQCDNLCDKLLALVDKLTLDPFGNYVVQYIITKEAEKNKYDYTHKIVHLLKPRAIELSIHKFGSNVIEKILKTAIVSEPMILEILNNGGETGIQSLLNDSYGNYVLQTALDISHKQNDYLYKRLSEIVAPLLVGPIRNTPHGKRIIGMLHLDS
Assay: Mg; RNA-MaP; 20 mM Na-HEPES pH 7.4, 30 mM KOAc, 0.75 mM MgCl2, 0.1% Tween-20, 5% glycerol, 0.1 mg/mL BSA, 2 mM DTT; 25 C; 0.0125-409.6 nM protein
Conditions: tags: N-His6-TEV cleaved; C-SNAP kept, Cy3B-labelled; label: tethered on chip by stalled RNA polymerase
pKd: −log10 of the molar value.

{"binder": "Id_ii_S2_P4E.2_K4.1_C4.2_[C-2G]_H4.1_A4.1_F4.1_T4.2_[G10T]_[T11G] (ssRNA) RNA: UUUGAUUAAUAUGAUAUCGUUCUUUCUGUUGUAUAUUAUGUUCUUUCUCGAUAUCAUAUUAAUCUUU", "qualifier.sign": "=", "pKd": 9.23}
{"binder": "UCUCUUUGUAGCUCUUCUCUU (ssRNA) [Ic_S1_P4E.1_K4.1_C4.1_H4.1_A4.1_[T5G]_[A6C]_F4.1_[T8C]_[A9T]_T4.1]", "qualifier.sign": "=", "pKd": 5.69}
{"binder": "Id_ii_S2_P5E.4_K5.3_C5.2_[T-1A]_H5.3_A5.1_F5.1_T5.2_[T11C]_[A12C] (ssRNA) RNA: UUUGAUUAAUAUGAUAUCGUUCUUUCUCAACACUUAUUACCUUCUUUCUCGAUAUCAUAUUAAUCUUU", "qualifier.sign": "<", "pKd": 5.64}
{"binder": "Ic_S4_P4E.1_K4.1_C4.1_H4.1_A4.1_[A6G]_[T7G]_F4.1_[T8C]_[A9T]_T4.1 (ssRNA) RNA: UUUGACAACUGAUCGUUCUUUCUUGUAUGGCUUUCUUUCUCGAUCAGUUGUCUUU", "qualifier.sign": "=", "pKd": 6.20}
{"binder": "UCUCUUUGUAGUAUUAUCUCUU (ssRNA) [Ia_S1_P5E.1_K5.1_C5.1_H5.1_A5.1_[T5G]_F5.1_T5.1]", "qualifier.sign": "=", "pKd": 7.52}
{"binder": "UCUCUUUGUAAAAACCUCUCUU (ssRNA) [Ic_S1_P5E.1_K5.1_C5.1_H5.1_A5.1_[T5A]_[T6A]_F5.1_[T8A]_[T9C]_[A10C]_T5.1]", "qualifier.sign": "=", "pKd": 5.94}
{"binder": "Ic_S2_P4E.1_K4.1_C4.1_H4.1_A4.1_[A6T]_F4.1_[T8C]_[A9T]_T4.1 (ssRNA) RNA: UUUGAUUAAUAUGAUAUCGUUCUUUCUUGUAUUUCUUUCUUUCUCGAUAUCAUAUUAAUCUUU", "qualifier.sign": "=", "pKd": 7.66}
{"binder": "UCUCUUUGUACACUUAUUAUAUCUCUU (ssRNA) [Id_iii_S1_P5E.7_K5.3_C5.3_[C-2G]_H5.3_A5.1_F5.1_T5.2]", "qualifier.sign": "=", "pKd": 8.41}
{"binder": "Id_ii_S2_P5E.2_K5.1_C5.2_[T-1G]_H5.1_A5.1_F5.1_T5.2_[T11A]_[A12C] (ssRNA) RNA: UUUGAUUAAUAUGAUAUCGUUCUUUCUCGUGUAUUAUUAACUUCUUUCUCGAUAUCAUAUUAAUCUUU", "qualifier.sign": "=", "pKd": 8.21}
{"binder": "UCUCUUUGUCUAUAUCUCUU (ssRNA) [Ia_S1_P3E.1_K3.1_C3.1_H3.1_[A4C]_A3.1_F3.1_T3.1]", "qualifier.sign": "=", "pKd": 5.93}
{"binder": "Ia_S4_P5E.1_K5.1_C5.1_H5.1_[A4C]_A5.1_F5.1_T5.1 (ssRNA) RNA: UUUGACAACUGAUCGUUCUUUCUUGUCUUAUUAUUCUUUCUCGAUCAGUUGUCUUU", "qualifier.sign": "=", "pKd": 7.88}
{"binder": "UCUCUUUGUUUUUAUCUCUU (ssRNA) [Ib_S1_P3E.1_K3.1_C3.1_H3.1_[A4T]_A3.1_[A6T]_F3.1_T3.1]", "qualifier.sign": "=", "pKd": 5.78}
